Biological target: T1, BRD^Baz2B F2139C (human, UniProt Q9UIF8 2054-2168, F2139C, fluorescent label (Monolith NT Protein Labelling Kit RED-NHS))
T1 construct: bromodomain (BRD) of human Baz2B with a cancer-associated point mutation, made on pNIC28-Bsa4-BAZ2B-BRD; Same limits as m1; mutation found in endometrial cancer; source: E. coli BL21(DE3)-R3-pRARE2, purified (Ni-NTA, Sephadex 75)
T1 sequence: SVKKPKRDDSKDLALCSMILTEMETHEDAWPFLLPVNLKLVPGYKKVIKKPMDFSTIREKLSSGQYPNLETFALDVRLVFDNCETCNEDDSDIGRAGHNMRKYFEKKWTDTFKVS
Test: MST; 100 nM fluorescently labelled (RED-NHS) BRD^Baz2B, peptide (H3 or H3K14ac) titrated; MST buffer 150 mM Tris-HCl, 50 mM NaCl, 10 mM MgCl2, pH 7.6, 0.0025% Pluronic, 200 ng/ul BSA; 25 C, 20% MST power; at least triplicate
Conditions: both partners purified
Measurement name: Kd (µM)
Please give a number only; it is taken to be in µM.

stdin: Consider the binder Ac-TARKSTGGK(Ac)APRKQL-NH2 (N-terminal tail of histone H3, residues 6-20; also called acetylated H3 tail peptide; acetylated at K14 (K14ac) N-terminal H3 histone tail peptide; source: synthetic peptide, bought: alta Bioscience) [H3K14ac peptide (Ac-TARKSTGGK(ac)APRKQL-NH2)] and give its measured Kd.
stdout: 20
